target: APC (303–739) (Homo sapiens); assay: FP competitive assay using tracer 7; type: binding; details: Repeat 1; Table 3 source data; read-out: IC50(μM) Repeat 1
Sequence (P25054 303-739): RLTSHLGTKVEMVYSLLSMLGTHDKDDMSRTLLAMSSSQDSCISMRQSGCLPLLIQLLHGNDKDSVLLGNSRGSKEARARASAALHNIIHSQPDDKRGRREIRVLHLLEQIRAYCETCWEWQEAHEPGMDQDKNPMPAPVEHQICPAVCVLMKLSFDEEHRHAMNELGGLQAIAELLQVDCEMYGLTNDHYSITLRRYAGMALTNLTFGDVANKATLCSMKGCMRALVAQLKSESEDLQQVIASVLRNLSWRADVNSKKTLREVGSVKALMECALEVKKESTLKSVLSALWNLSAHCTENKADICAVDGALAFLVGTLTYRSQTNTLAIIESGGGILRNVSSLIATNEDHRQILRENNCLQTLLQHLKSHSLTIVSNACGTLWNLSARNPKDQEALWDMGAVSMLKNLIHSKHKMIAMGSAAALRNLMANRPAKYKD
Where a SMILES comes first, the peptide text is derived from it. The star is where a group is joined. Cyclopentanecarbonyl = O=C(C1CCCC1)*; Benzoyl(4-OMe) = COc1ccc(C(=O)*)cc1; Pyrrole(1-Me-2-CO) = Cn1cccc1C(=O)*; Isonicotinoyl = O=C(c1ccncc1)*
readout-name: IC50 (µM)
Note: unit µM is implicit; provide only the numeric part.

Before answering, review these 3 worked examples.
molecule	IC50 [µM]
CC(C)C[C@H](NC(=O)[C@H](CO)NC(=O)[C@H](CCC(=O)O)NC(=O)CNC(=O)[C@H](C)NC(=O)C1CCCC1)C(=O)N[C@@H](Cc1ccc(O)cc1)C(=O)N[C@@H](CCC(=O)O)C(N)=O [MAI-503] (Cyclopentanecarbonyl-AGESLYE-NH2)	7.09
COc1ccc(C(=O)N[C@@H](C)C(=O)NCC(=O)N[C@@H](CCC(=O)O)C(=O)N[C@@H](CO)C(=O)N[C@@H](CC(C)C)C(=O)N[C@@H](Cc2ccc(O)cc2)C(=O)N[C@@H](CCC(=O)O)C(N)=O)cc1 [MAI-516] ({Benzoyl(4-OMe)}-AGESLYE-NH2)	0.0453
CC(C)C[C@H](NC(=O)[C@H](CO)NC(=O)[C@H](CCC(=O)O)NC(=O)CNC(=O)[C@H](C)NC(=O)c1cccn1C)C(=O)N[C@@H](Cc1ccc(O)cc1)C(=O)N[C@@H](CCC(=O)O)C(N)=O [MAI-510] ({Pyrrole(1-Me-2-CO)}-AGESLYE-NH2)	0.366

As a next step, examine the molecule that follows.
In: Checklist item: IC50 tested on APC (303–739) (Homo sapiens), entry CC(C)C[C@H](NC(=O)[C@H](CO)NC(=O)[C@H](CCC(=O)O)NC(=O)CNC(=O)[C@H](C)NC(=O)c1ccncc1)C(=O)N[C@@H](Cc1ccc(O)cc1)C(=O)N[C@@H](CCC(=O)O)C(N)=O [MAI-514] (Isonicotinoyl-AGESLYE-NH2) , value?
Out: 0.116
